system_tested: h P2X3 (Homo sapiens, UniProt P56373)
protocol_notes: In vitro electrophysiology assay for P2X3 (automated whole-cell patch clamp, Sophion Qube)
Type: cell-based
experimental_parameters: Table 6; range of activity; inhibition of P2X3 current, agonist α,β-MeATP (800 nM)
pIC50: −log10 of the molar value. Structures can show the parent of a compound that is named as a salt.
readout_type: pIC50

# annotated cases, reported pIC50 shown
{"columns": ["compound", "pIC50"],
 "data": [
  ["COc1cc(-c2ncc(F)cn2)cc2c(NC(C)c3nc(C)no3)ncnc12 (stereo not drawn)", "5.50 to 6.50"],
  ["COc1cc(-c2ccc(F)cc2)cc2c(NC(C)c3nc(-c4ccncc4)no3)ncnc12 (single isomer, unassigned) [Example 192]", "4.50 to 5.50"],
  ["C[C@@H](Nc1ncnc2c(C3=CCNCC3)cc(-c3ccc(F)cc3)cc12)c1cnc(C(F)(F)F)nc1", "> 6.50"]
]}

Respectfully, I request pIC50 for each entry included below.
1. COc1cc(-n2ccc(F)n2)cc2c(N[C@H](C)c3ccc(C)nn3)ncnc12
2. Cc1ccc(CNc2ncnc3c(OC4CCOCC4)cc(-c4ccc(F)cn4)cc23)nn1
3. COc1cc(-c2ccc(F)cc2)cc2c(N[C@@H](C)c3cnc(C(F)(F)F)nc3)ncnc12 [Example 185, formate]
4. COc1cc(-c2ncc(C)cn2)cc2c(NC(C)c3nnc(C)s3)ncnc12 (single isomer, unassigned) [Example 124]
5. COc1cc(-c2ccc(F)cn2)cc2c(NCc3ccn(C)n3)ncnc12

result:
["5.50 to 6.50", "5.50 to 6.50", "> 6.50", "5.50 to 6.50", "5.50 to 6.50"]

Would you mind listing pIC50 for each of the following compounds?
1. CNS(=O)(=O)c1cc(-c2ccc(F)cc2)cc2c(N[C@H](C)c3nnc(C)s3)ncnc12
2. Cc1cnc(-c2cc(OC3CCOCC3)c3ncnc(NC(C)c4nnc(C)s4)c3c2)s1 (single isomer, unassigned) [Example 172]
3. COc1cc(-c2ncc(C)cn2)cc2c(NC(C)c3nnc(C)o3)ncnc12 (single isomer, unassigned) [Example 128]

result:
1. 5.50 to 6.50
2. > 6.50
3. 4.50 to 5.50

====

system_tested: h P2X3 (Homo sapiens, UniProt P56373)
Sequence (P56373 1-397): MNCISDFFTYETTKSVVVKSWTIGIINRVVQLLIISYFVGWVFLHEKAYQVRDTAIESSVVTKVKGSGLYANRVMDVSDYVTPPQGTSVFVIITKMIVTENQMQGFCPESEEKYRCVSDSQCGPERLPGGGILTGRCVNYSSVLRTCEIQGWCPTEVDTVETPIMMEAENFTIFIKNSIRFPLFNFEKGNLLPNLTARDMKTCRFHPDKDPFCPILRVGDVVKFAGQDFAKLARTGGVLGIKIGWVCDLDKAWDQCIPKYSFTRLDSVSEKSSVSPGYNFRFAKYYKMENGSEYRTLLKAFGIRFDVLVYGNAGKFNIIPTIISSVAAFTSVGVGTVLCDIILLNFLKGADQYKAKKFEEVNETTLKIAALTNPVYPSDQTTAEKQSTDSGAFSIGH
protocol_notes: In vitro electrophysiology assay for P2X3 (automated whole-cell patch clamp, Sophion Qube)
Assay type: cell-based
experimental_parameters: Table 6; range of activity; inhibition of P2X3 current, agonist α,β-MeATP (800 nM)
pIC50: −log10 of the molar value.
readout_type: pIC50

Please review the following examples before continuing.
{"columns": ["compound", "measured_result"],
 "data": [
  ["COc1cc(-c2ncc(F)cn2)cc2c(NC(C)c3noc(C)n3)ncnc12 (stereo not shown)", "5.50 to 6.50"],
  ["Cc1ccc(-c2cc(OC3CCOCC3)c3ncnc(NC(C)c4nnc(C)s4)c3c2)nc1 (single isomer, unassigned) [Example 84]", "> 6.50"]
]}

Dear colleague, could you send me pIC50 for each of the items below? Thanks.
1. COc1cc(-c2ccc(F)cn2)cc2c(NC(C)c3nc(C)no3)ncnc12 (single isomer, unassigned) [Example 176]
2. COc1cc(-c2ncc(C)cn2)cc2c(N[C@H](C)c3noc(C)n3)ncnc12
3. COc1cc(-c2ccc(F)cn2)cc2c(NCc3ccn(C)c(=O)c3)ncnc12
4. COc1cc(-c2ncc(C)cn2)cc2c(NC(C)c3nnc(C)o3)ncnc12 (single isomer, unassigned) [Example 129]
5. Cc1nnc([C@@H](C)Nc2ncnc3c(S(=O)(=O)N4CCOCC4)cc(-c4ccc(F)cc4)cc23)s1 (racemic)
6. Cc1cnc(-c2cc(OC3CCOCC3)c3ncnc(NC(C)c4nnc(C)s4)c3c2)s1 (single isomer, unassigned) [Example 171]
7. COc1cc(-c2ccc(F)cc2)cc2c(NC(C)c3cccc(=O)[nH]3)ncnc12 (stereo not shown) [Example 1]

result:
["> 6.50", "5.50 to 6.50", "5.50 to 6.50", "> 6.50", "> 6.50", "5.50 to 6.50", "> 6.50"]

query: Quick one: pIC50 for COc1cc(-c2ccc(F)cn2)cc2c(NC(C)c3nnc(C)s3)ncnc12 (single isomer, unassigned) [Example 174] ?
result: > 6.50
